Biological target: T1, c-erbB-2 ECD with a Ser-Gly-His6 C-terminal fusion (UniProt P04626 23-652)
T1 construct: extracellular domain; Expressed from CHO cells, IMAC purified; coupled to a CM5 chip, coated on plates, or biotinylated with NHS-LC-biotin; also called c-erbB-2 extracellular domain; biotinylated c-erbB-2 ECD
Assay: SPR BIAcore
QUANTITY KIND: koff (s⁻¹)

{"columns": ["BINDER", "QUANTITY KIND", "REPORTED RESULT"],
 "data": [
  ["C6.5C100S/C100eS (scFv, C6.5 VH CDR3 scan mutant; Kabat numbering) scFv: QVQLLQSGAELKKPGESLKISCKGSGYSFTSYWIAWVRQMPGKGLEYMGLIYPGDSDTKYSPSFQGQVTISVDKSVSTAYLQWSSLKPSDSAVYFCARHDVGYSSSSNSAKWPEYFQHWGQGTLVTVSSGGGGSGGGGSGGGGSQSVLTQPPSVSAAPGQKVTISCSGSSSNIGNNYVSWYQQLPGTAPKLLIYGHTNRPAGVPDRFSGSKSGTSASLAISGFRSEDEADYYCAAWDDSLSGWVFGGGTKLTVLG", "koff", 0.138],
  ["C6.5Q101A (scFv, C6.5 VH CDR3 scan mutant; Kabat numbering) scFv: QVQLLQSGAELKKPGESLKISCKGSGYSFTSYWIAWVRQMPGKGLEYMGLIYPGDSDTKYSPSFQGQVTISVDKSVSTAYLQWSSLKPSDSAVYFCARHDVGYCSSSNCAKWPEYFAHWGQGTLVTVSSGGGGSGGGGSGGGGSQSVLTQPPSVSAAPGQKVTISCSGSSSNIGNNYVSWYQQLPGTAPKLLIYGHTNRPAGVPDRFSGSKSGTSASLAISGFRSEDEADYYCAAWDDSLSGWVFGGGTKLTVLG", "koff", 0.0098]
]}
